The entries below come with measured Classification values attached.
Target: GST-Atrophin-1 Interacting Protein PDZ domain 1 (Rattus norvegicus (Rat)), O88382
Sequence (O88382 408-511): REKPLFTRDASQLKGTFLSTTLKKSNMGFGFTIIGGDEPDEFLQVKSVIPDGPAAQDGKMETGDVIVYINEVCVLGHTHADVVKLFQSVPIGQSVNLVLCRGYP
Experiment: G' assay; further: key of the grades not given here
Supply the numeric figure in A450 class, leaving out any unit text.

Some binders with recorded Classification:
BINDER	MEASUREMENT_UNITS	Classification
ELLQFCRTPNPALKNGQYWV (modifications not checked) [CSPG4 (chondroitin sulfae proteoglycan 4, melanoma-associated)]	A450 class	1
TFAAGFNSTGLPHSTTRV (modifications not checked) [Neuroligin]	A450 class	2
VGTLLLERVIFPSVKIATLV (modifications not checked) [AdenoE4 typ9]	A450 class	5

INPUT: Output Classification of SFTSILTCHQRRTQRKETVA (modifications not checked) [GluR5-2 (rat)]
OUTPUT: 1
